- System: MDA-MB-468 breast
- Protocol details: NCI tumour cell line growth inhibition, 48 h
Quick reference for GI50 among some compounds

{"Compound": "CCN(CCNS(C)(=O)=O)c1ccc(N)c(C)c1", "GI50": "2110 nM"}
{"Compound": "C=CC12CCN(CC1)C(C(O)c1ccnc3ccc(OC)cc13)C2 (stereo unspecified)", "GI50": "57400 nM"}
{"Compound": "COc1ccc(CNc2c3ccccc3nc3ccccc23)cc1F", "GI50": "1860 nM"}
{"Compound": "OC(c1cc2cc(Cl)ccc2c2cc(C(F)(F)F)ccc12)C1CCCCN1 (stereo unspecified)", "GI50": "1660 nM"}
{"Compound": "CNCCCNc1ccnc2cc(Cl)ccc12", "GI50": "12700 nM"}
{"Compound": "C=C(C)[C@@H]1CC[C@]2(CN)CC[C@]3(C)[C@H](CC[C@@H]4[C@@]5(C)CCCNC(C)(C)[C@@H]5CC[C@]43C)[C@@H]12", "GI50": "1750 nM"}

Source listed as PubChem BioAssay (NCI).
